FYI, the data here is from BindingDB's records for doi:10.1016/0960-894X(95)00483-A.

pIC50: −log10 of the molar value.
Measured metric: pIC50

Please tell me: pIC50 of `O=C(O)C1(C(=O)O)Oc2cc3c(cc2O1)C[C@@H](NC[C@H](O)c1cccc(Cl)c1)CCC3` , system Beta-2 adrenergic receptor (Rattus norvegicus) (UniProt P10608)?
< 5.00
